Provide the recorded growth inhibition for the entries that follow.
Assay: NCI Yeast Anticancer Drug Screen. Data for the mlh1 rad18 strain (AID 175)
Conditions: S. cerevisiae mlh1 rad18 strain growth inhibition; at 50.0 µM; stronger effect = higher value
Compounds without any hit were thinned out: in the full panel of roughly 79,000, 15% have a hit. The source made the active and inactive calls. Rule as the data show it: active = growth inhibition above about 70%; inactive = the rest. Where a SMILES comes first, the peptide text is derived from it. The star is where a group is joined. Boc = CC(C)(C)OC(=O)*; OSu = O=C1CCC(=O)N1O*

Endpoint output: growth inhibition of O=C(O)C1CC=CCC1C(=O)Nc1cccc(O)c1 (centres undefined) . Value?
6.25% (inactive)

Consider the compound shown here: CC(C)(C)OC(=O)NC(Cc1ccc(O)cc1)C(=O)NC(CCCCN)C(=O)NC(Cc1ccc(O)cc1)C(=O)NC(CCCCN)C(=O)ON1C(=O)CCC1=O (centres undefined) (Boc-YKYK-OSu; configuration not given here) What is its recorded growth inhibition?
4.45% (inactive)

Data request, read-out growth inhibition, for CN1C2CCC1CC(OC(c1ccccc1)c1ccccc1)C2 (centres undefined)
5.1% (inactive)

So what does the record say about growth inhibition for CN(C)C(=O)Nc1ccc(C#N)cc1 ?
-8.2% (inactive)
